Numbers sourced from ChEMBL document CHEMBL3124867.

# EXPERIMENTAL PROTOCOL: Displacement of [3H]-3-(1-(3-chloro-6-isopropyl-8-(trifluoromethyl)imidazo[1,2-a]pyridine-2-carbonyl)piperidin-4-yl)oxazolidin-2-one from HCV genotype 1b C-terminal His-tagged NS4B (1 to 261 aa) expressed in baculovirus infected SF9 cells after overnight incubation
# Parameters: species or system Hepatitis C virus subtype 1b
Rule for this label: satisfied means IC50 is less than 10 nM; not satisfied means IC50 is at least 10 nM.

- SMILES RECORD: "O=C(c1nc2c(C(F)(F)F)cc(C3CC3)cn2c1Cl)N1CCC(N2CCOC2=O)CC1"
  CLASS ASSIGNMENT: "not satisfied"
- SMILES RECORD: "O=C(c1nn2c(C(F)(F)F)cc(C3CC3)cc2c1Cl)N1CCN([C@H]2C[C@H]3C[C@H]3[C@H]2O)C(=O)C1"
  CLASS ASSIGNMENT: "not satisfied"
- SMILES RECORD: "O=C(c1nn2c(C(F)(F)F)cc(C3CC3)cc2c1Cl)N1CCN([C@@H]2C[C@H]3C[C@H]3C2)C(=O)C1"
  CLASS ASSIGNMENT: "satisfied"
- SMILES RECORD: "O=C(c1oc2c(C(F)(F)F)cc(C3CC3)cc2c1Cl)N1CCN([C@H]2CC[C@H](O)CC2)C(=O)C1"
  CLASS ASSIGNMENT: "satisfied"

[ask] Please let me know if "Cn1c(C(=O)N2CCN([C@H]3CC[C@H](O)CC3)C(=O)C2)nc2c(C(F)(F)F)cc(C3CC3)cc21" shows IC50 below 10 nM.
[reply] not satisfied

[ask] Repeat for the following compound: "O=C(c1nn2c(C(F)(F)F)cc(C3CC3)cc2c1Cl)N1CCN([C@@H]2C[C@@H]3C[C@@H]3[C@@H]2O)C(=O)C1"
[reply] not satisfied

[ask] Also, "O=C(c1nn2c(C(F)(F)F)cc(C3CC3)cc2c1Cl)N1CCN([C@H]2CC[C@H](O)CC2)C(=O)C1" please.
[reply] not satisfied
